Test system: NCl-H460 cell line
Experiment notes: Proliferation assay (NCI-H460 cell line)
Format: cell-based
Experimental parameters: Homo sapiens, NCI-H460, 96 h, read-out: Biological Assay 2: Proliferation assay (NCl-H460 cell line) median IC50
Listing of recorded pIC50 by entry.
Please treat pIC50 as minus the base-10 logarithm of the molar concentration.

Here is how some molecules turned out for pIC50.
# Molecular string, Test target, Value kind, Reported measurement
rows = [
    ("CCOc1cc(F)c(Cn2nc(-c3nc(N)c(OC)c(Nc4ccncn4)n3)c(C)c2C2CC2)c(F)c1", "NCl-H460 cell line", "pIC50", 5.13),
    ("CCNC(=O)Nc1cc(Nc2ccncc2)nc(-c2nn(Cc3c(F)cc(OCC)cc3F)c(C3CC3)c2C)n1", "NCl-H460 cell line", "pIC50", 5.82),
    ("CCOc1cc(F)c(Cn2nc(-c3nc(Nc4ccncc4)c(OCCOC)c(Nc4ccncc4)n3)c(C)c2C2CC2)c(F)c1", "NCl-H460 cell line", "pIC50", 5.92),
]

Below: the item to evaluate.
Query block: GET /values?readout=pIC50&item= `CCOc1cc(F)c(Cn2nc(-c3nc(Nc4ccncn4)cc(Nc4ccncn4)n3)c(C)c2C2CC2)c(F)c1`
Result block: 5.80

---

Listing of recorded IC50 by entry.
Tested on: HeLa cell line
Experiment notes: Proliferation assay (HeLa cell line)
Assay type: cell-based
Experimental parameters: Homo sapiens, 96 h, read-out: Biological Assay 2: Proliferation assay (HeLa cell line) median IC50

Here is how some compounds turned out for IC50.
# Molecular string, IC50
rows = [
    ("CCOc1cc(F)c(Cn2nc(-c3nc(N)cc(Nc4ccncc4)n3)c(C)c2C2CC2)c(F)c1", "> 10000 nM"),
    ("CCOc1cc(F)c(Cn2nc(-c3nc4c(c(Nc5ccncc5)n3)OCC(=O)N4)c(C)c2C2CC2)c(F)c1", "> 10000 nM"),
]

Query block: # value lookup — system HeLa cell line, readout IC50, item `CCOc1cc(F)c(Cn2nc(-c3nc(N)c(NS(=O)(=O)CC)c(Nc4ccncc4)n3)c(C)c2C2CC2)c(F)c1`
Result block: > 10000 nM

Query block: # value lookup — system HeLa cell line, readout IC50, item `CCOc1cc(F)c(Cn2nc(-c3nc(Nc4ccncc4)c(NS(=O)(=O)C(F)(F)F)c(Nc4ccncc4)n3)c(C)c2C2CC2)c(F)c1`
Result block: 3000 nM

Query block: # value lookup — system HeLa cell line, readout IC50, item `CCOc1cc(F)c(Cn2nc(-c3nc(N)c(OCCOC)c(Nc4ccncc4)n3)c(C)c2C2CC2)c(F)c1`
Result block: 3000 nM

---

Test system: HeLa cell line
Experiment notes: Proliferation assay (HeLa cell line)
Assay type: cell-based
Experimental parameters: Homo sapiens, 96 h, read-out: Biological Assay 2: Proliferation assay (HeLa cell line) median IC50
Listing of recorded IC50 by entry.
Write the value in µM as a bare number.

# Molecular string, Unit name, IC50
records = [
    ("CCOc1cc(F)c(Cn2nc(-c3nc(N)cc(Nc4ccnnc4)n3)c(C)c2C2CC2)c(F)c1", "µM", 6),
]

Below: the item to evaluate.
Query block: GET /values?readout=IC50&item= `CCOc1cc(F)c(Cn2nc(-c3nc(Nc4ccncn4)nc(Nc4ccncn4)n3)c(C)c2C2CC2)c(F)c1`
Result block: 1.7

---

System: HeLa cell line
Experiment notes: Proliferation assay (HeLa cell line)
Format: cell-based
Experimental parameters: Homo sapiens, 96 h, read-out: Biological Assay 2: Proliferation assay (HeLa cell line) median IC50
Value kind: IC50

# Molecular string, IC50
rows = [
    ("CCOc1cc(F)c(Cn2nc(-c3nc(Nc4ccncn4)c(OC)c(Nc4ccncn4)n3)c(C)c2C2CC2)c(F)c1", "> 10 µM"),
    ("CCOc1cc(F)c(Cn2nc(-c3nc(Nc4ccncc4)c(NS(=O)(=O)CC)c(Nc4ccncc4)n3)c(C)c2C2CC2)c(F)c1", "> 10 µM"),
]

Below: the item to evaluate.
Query block: GET /values?readout=IC50&item= `CCOc1cc(F)c(Cn2nc(-c3nc(N)c(NC(=O)COC)c(Nc4ccncc4)n3)c(C)c2C2CC2)c(F)c1`
Result block: > 10 µM

Value source: patent US20160145267A1
